For each of the compounds below, state its viability at 1.11111 μM.
- Experiment: Cell viability assay (WST-8), HUDEP-2
- Format: cell-based, human
- Reported conditions: human, HUDEP-2 cells, 1.11111 μM; control (0 μM) = 100
A bare number is not enough; add the unit after it.

Prompt: Please report the recorded viability at 1.11111 μM for COc1cc2c(NC3CCN(C(C)C)CC3)nc(C3CCCCC3)nc2cc1OCCCN1CCCC1 .
Completion: 36%

Prompt: Please report the recorded viability at 1.11111 μM for COc1cc2c(NC3CCN(C(C)C)CC3)nc(N3CCC(F)(F)CC3)nc2cc1OCCCN1CCCC1 .
Completion: 85.2%

Prompt: Please report the recorded viability at 1.11111 μM for Cc1c(C(=O)NC(CCC2CC2)C(=O)Nc2ccc(C#N)cc2)[nH]c2c1C(=O)CC(C)(C)C2 (stereo not drawn) .
Completion: 105%

====

- Experiment: Liver microsomal stability assay, rat
- Type: in vitro ADME
- Reported conditions: rat, liver microsomes, Metabolic stability, % remaining of RK-701, Rat; Time 10; replicate values
Readout: remaining at 10 min, 1 µM
A bare number is not enough; add the unit after it.

Prompt: Please report the recorded remaining at 10 min, 1 µM for Cc1c(C(=O)NC(CCC2CC2)C(=O)Nc2ccc(C#N)cc2)[nH]c2c1C(=O)CC(C)(C)C2 (stereo not shown) [RK-701] .
Completion: 83.1%

====

- Measured target: DNMT3b/3L (Homo sapiens)
- Construct: purchased Reaction Biology
- Experiment: Radioisotope-based methyltransferase assay (selectivity)
- Format: biochemical
- Reported conditions: RK-701 in duplicate
Readout: pIC50
// pIC50 here means minus log10 of the molar concentration (mol/L)

Prompt: Fill in the recorded pIC50 for this compound, with DNMT3b/3L (Homo sapiens) as test system: Nc1ncnc2c1ncn2[C@@H]1O[C@H](CSCC[C@H](N)C(=O)O)[C@@H](O)[C@H]1O [SAH, S-(5'-Adenosyl)-L-homocysteine, reference compound]
Completion: 7.27

====

- Measured target: DNMT3a (Homo sapiens, UniProt Q9Y6K1)
- Construct: purchased Reaction Biology
- Sequence (Q9Y6K1 whole entry, looked up): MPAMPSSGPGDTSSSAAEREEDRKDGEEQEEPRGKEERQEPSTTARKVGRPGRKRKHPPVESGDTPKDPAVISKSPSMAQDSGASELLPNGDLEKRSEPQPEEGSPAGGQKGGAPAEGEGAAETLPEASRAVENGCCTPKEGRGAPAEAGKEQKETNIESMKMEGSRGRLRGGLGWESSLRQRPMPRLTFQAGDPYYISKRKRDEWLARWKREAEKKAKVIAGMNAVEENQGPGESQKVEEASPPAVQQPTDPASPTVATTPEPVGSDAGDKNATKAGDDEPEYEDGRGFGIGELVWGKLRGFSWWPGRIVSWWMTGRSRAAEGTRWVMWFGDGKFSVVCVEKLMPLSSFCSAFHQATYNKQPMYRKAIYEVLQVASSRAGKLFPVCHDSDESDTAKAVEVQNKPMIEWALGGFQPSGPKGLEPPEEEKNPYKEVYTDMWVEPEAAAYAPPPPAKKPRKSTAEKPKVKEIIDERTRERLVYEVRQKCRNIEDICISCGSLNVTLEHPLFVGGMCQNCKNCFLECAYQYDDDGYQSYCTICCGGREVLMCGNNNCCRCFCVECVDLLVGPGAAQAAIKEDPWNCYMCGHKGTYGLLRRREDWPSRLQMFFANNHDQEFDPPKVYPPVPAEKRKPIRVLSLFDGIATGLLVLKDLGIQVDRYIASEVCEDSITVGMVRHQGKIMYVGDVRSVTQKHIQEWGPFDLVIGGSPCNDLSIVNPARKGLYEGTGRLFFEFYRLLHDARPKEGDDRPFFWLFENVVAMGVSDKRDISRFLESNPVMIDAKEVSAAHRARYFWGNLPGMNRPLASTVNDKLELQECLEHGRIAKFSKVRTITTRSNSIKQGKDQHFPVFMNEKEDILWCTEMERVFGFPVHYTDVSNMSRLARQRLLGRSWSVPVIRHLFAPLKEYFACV
- Experiment: Radioisotope-based methyltransferase assay (selectivity)
- Format: biochemical
- Reported conditions: DNMT3a, 1 μM SAM; read-out: IC50
pIC50: −log10 of the molar value.
Readout: pIC50

Prompt: Please report the recorded pIC50 for Cc1c(C(=O)NC(CCC2CC2)C(=O)Nc2ccc(C#N)cc2)[nH]c2c1C(=O)CC(C)(C)C2 (stereo not shown) [RK-701] .
Completion: < 4.00

====

- Measured target: PRDM9 (Homo sapiens)
- Construct: purchased Reaction Biology
- Sequence (Q9NQV7 whole entry): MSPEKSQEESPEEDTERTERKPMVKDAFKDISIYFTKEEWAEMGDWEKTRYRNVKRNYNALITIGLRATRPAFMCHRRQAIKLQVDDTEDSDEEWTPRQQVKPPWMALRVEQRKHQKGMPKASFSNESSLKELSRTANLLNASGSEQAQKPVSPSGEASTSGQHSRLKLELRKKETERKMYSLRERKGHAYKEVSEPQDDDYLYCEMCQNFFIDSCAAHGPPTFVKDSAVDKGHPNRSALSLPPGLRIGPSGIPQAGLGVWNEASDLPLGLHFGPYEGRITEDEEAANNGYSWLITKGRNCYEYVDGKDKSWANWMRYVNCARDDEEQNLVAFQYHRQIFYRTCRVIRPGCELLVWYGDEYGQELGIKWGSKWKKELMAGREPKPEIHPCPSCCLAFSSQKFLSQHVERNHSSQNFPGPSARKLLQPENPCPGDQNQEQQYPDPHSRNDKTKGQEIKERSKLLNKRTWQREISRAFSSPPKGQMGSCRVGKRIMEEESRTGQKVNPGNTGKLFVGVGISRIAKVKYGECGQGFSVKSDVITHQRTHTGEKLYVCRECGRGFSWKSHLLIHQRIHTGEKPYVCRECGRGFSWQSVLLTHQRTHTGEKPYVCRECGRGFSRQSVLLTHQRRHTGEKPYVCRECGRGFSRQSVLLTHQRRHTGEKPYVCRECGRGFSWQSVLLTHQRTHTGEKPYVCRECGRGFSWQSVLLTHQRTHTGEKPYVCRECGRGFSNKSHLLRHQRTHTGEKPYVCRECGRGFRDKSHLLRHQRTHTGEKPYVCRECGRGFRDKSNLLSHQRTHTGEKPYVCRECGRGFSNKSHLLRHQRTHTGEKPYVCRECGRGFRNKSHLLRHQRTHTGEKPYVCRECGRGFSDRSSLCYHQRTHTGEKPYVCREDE
- Experiment: Radioisotope-based methyltransferase assay (selectivity)
- Assay type: biochemical
- Reported conditions: PRDM9, 1 μM SAM; read-out: IC50
pIC50: −log10 of the molar value.
Readout: pIC50

Prompt: Fill in the recorded pIC50 for this molecule, with PRDM9 (Homo sapiens) as test system: Cc1c(C(=O)NC(CCC2CC2)C(=O)Nc2ccc(C#N)cc2)[nH]c2c1C(=O)CC(C)(C)C2 (stereo not shown)
Completion: < 4.00

====

- Experiment: Liver microsomal stability assay, human
- Format: in vitro ADME
- Reported conditions: human, liver microsomes; read-out: Metabolic stability in liver microsomes CLint
Readout: microsomal CLint at 1 μM (µL/min/mg)
Numeric only. Scale: µL/min/mg

Prompt: Please report the recorded microsomal CLint at 1 μM for Cc1c(C(=O)NC(CCC2CC2)C(=O)Nc2ccc(C#N)cc2)[nH]c2c1C(=O)CC(C)(C)C2 (stereo not shown) .
Completion: 19
